# Target Of Assay: T1, biotinylated beta-catenin (UniProt P35222 134-665, limits assumed, biotinylated (site not stated))
# T1 construct: also called beta-catenin (SPR); armadillo domain of β-catenin
# T1 sequence (looked up): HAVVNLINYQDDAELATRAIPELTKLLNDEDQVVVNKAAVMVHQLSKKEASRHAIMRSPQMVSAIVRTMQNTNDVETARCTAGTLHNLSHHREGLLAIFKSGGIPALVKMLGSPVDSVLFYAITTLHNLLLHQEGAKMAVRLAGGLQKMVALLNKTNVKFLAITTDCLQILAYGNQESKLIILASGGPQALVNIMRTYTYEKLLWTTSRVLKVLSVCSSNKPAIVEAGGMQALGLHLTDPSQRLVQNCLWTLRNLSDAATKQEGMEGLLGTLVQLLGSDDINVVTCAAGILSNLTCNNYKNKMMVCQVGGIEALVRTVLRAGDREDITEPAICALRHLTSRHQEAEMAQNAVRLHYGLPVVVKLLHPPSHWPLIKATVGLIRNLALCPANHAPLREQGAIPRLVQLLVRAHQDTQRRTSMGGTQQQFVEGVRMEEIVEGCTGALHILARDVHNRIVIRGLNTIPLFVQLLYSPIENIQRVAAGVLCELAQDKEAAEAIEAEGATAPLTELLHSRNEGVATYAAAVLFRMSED
# Assay Info: Table 3 'Binding Kd (nM)'; method not stated there (SPR in Example 2)
Bridge positions count the residues as written; N and C are the ends. Square brackets hold non-standard residues; d marks the D form. MB = Monomer B = PyrS, Alloc-pyrrolidine stapling residue (allyl carbamate on pyrrolidine N); MD = Monomer D = SgN, acyclic Alloc-amine olefin stapling residue; R8 = C=CCCCCCC[C@@](C)(N)C(=O)O
# maps each entry to its Kd
Give just the number in nM; leave the unit off.

AXILDAHIXRVW (not fully specified; Ac-A-R4-I-L-D-A-H-I-MH-R-V-W-NH2; carbamate staple R4/MH) [FP0509c] | 3
Ac-A[R8]ILDAHI[MB]RVW-NH2 (staple 2-9; also: Isomer 2, staple olefin E/Z not assigned, also called FPO217c isomer 2; FP00217c Isomer 2) [FP0217c Isomer 2] | 4
Ac-A[R8]ILDAHI[MD]RVW-NH2 (staple 2-9) [FP0338c] | 10

Here is another binder to look at.
Which Kd is reported for this binder? AXILDAHIXRVW (not fully specified; Ac-A-MG-I-L-D-A-H-I-MB-R-V-W-NH2; carbamate staple MG/MB) [FP0597c]
4
